Source: the supplement of paper PMC10126150

- System: ATP;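 also: ATP exposure 15 min at 22 °C before imaging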
- Assay comment: switch fluorescence ratio, 500 uM ATP over buffer (Cy3 cluster intensity, sum of 5 cycles each) (fold (ratio)); higher = stronger signal-on switching upon ATP binding; sequences stand for … in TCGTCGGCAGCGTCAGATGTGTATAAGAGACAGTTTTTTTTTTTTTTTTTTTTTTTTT…TC
- Experimental conditions: aptamer strand: ATP DNA aptamer (quencher-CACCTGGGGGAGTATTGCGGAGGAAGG + anchor), 100 nM annealed; ATP concentration: 500 uM
As shown below, each of these sequences has a reported switch fluorescence ratio value.

Record sequence: GGGGTGTTCA
System under test: ATP;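 also: ATP exposure 15 min at 22 °C before imaging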
switch fluorescence ratio: 0.999
//
Record sequence: CAGTTTTGGC
System under test: ATP;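 also: ATP exposure 15 min at 22 °C before imaging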
switch fluorescence ratio: 1.01
//
Record sequence: GACGTTAATA
System under test: ATP;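 also: ATP exposure 15 min at 22 °C before imaging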
switch fluorescence ratio: 1.41
//
Record sequence: CGGGCCATAG
System under test: ATP;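 also: ATP exposure 15 min at 22 °C before imaging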
switch fluorescence ratio: 1.03
//
Record sequence: TACGTAGGGT
System under test: ATP;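 also: ATP exposure 15 min at 22 °C before imaging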
switch fluorescence ratio: 1.19
//
Record sequence: CGTAAAACGC
System under test: ATP;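 also: ATP exposure 15 min at 22 °C before imaging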
switch fluorescence ratio: 1.02
//
Record sequence: CGGAATAGGG
System under test: ATP;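 also: ATP exposure 15 min at 22 °C before imaging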
switch fluorescence ratio: 1.07
//
Record sequence: TTTTATATGT
System under test: ATP;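 also: ATP exposure 15 min at 22 °C before imaging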
switch fluorescence ratio: 1.02
//
Record sequence: AAATGGGTAG
System under test: ATP;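 also: ATP exposure 15 min at 22 °C before imaging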
switch fluorescence ratio: 0.969
//
Record sequence: GCGGCTTGTG
System under test: ATP;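 also: ATP exposure 15 min at 22 °C before imaging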
switch fluorescence ratio: 0.999
//
Record sequence: TGTGTATTTT
System under test: ATP;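 also: ATP exposure 15 min at 22 °C before imaging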
switch fluorescence ratio: 0.992
//
Record sequence: GGCTTGGGGC
System under test: ATP;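 also: ATP exposure 15 min at 22 °C before imaging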
switch fluorescence ratio: 0.976
//
Record sequence: TGAAGTAACA
System under test: ATP;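 also: ATP exposure 15 min at 22 °C before imaging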
switch fluorescence ratio: 1.06
//
Record sequence: TGTATTGAAC
System under test: ATP;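 also: ATP exposure 15 min at 22 °C before imaging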
switch fluorescence ratio: 1.03
//
Record sequence: GTTAGTACTA
System under test: ATP;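 also: ATP exposure 15 min at 22 °C before imaging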
switch fluorescence ratio: 1
//
Record sequence: CTGACGTAAG
System under test: ATP;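 also: ATP exposure 15 min at 22 °C before imaging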
switch fluorescence ratio: 1.26
//
Record sequence: GGGCGAAGTC
System under test: ATP;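 also: ATP exposure 15 min at 22 °C before imaging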
switch fluorescence ratio: 0.975
//
Record sequence: CAGGTTGGAG
System under test: ATP;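 also: ATP exposure 15 min at 22 °C before imaging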
switch fluorescence ratio: 1.15
//
Record sequence: AGTGTTACG
System under test: ATP;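 also: ATP exposure 15 min at 22 °C before imaging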
switch fluorescence ratio: 1.01
//
Record sequence: CTAGTATGTT
System under test: ATP;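 also: ATP exposure 15 min at 22 °C before imaging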
switch fluorescence ratio: 0.979
//
Record sequence: GTTGAAAGCG
System under test: ATP;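 also: ATP exposure 15 min at 22 °C before imaging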
switch fluorescence ratio: 1.03
//
Record sequence: AGTTGCCCGG
System under test: ATP;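 also: ATP exposure 15 min at 22 °C before imaging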
switch fluorescence ratio: 1.01
//
Record sequence: TTGGGGTGCA
System under test: ATP;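 also: ATP exposure 15 min at 22 °C before imaging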
switch fluorescence ratio: 0.99
//
Record sequence: TTCTGCGGGG
System under test: ATP;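 also: ATP exposure 15 min at 22 °C before imaging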
switch fluorescence ratio: 1.04
//
Record sequence: GTGGTCTGCC
System under test: ATP;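 also: ATP exposure 15 min at 22 °C before imaging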
switch fluorescence ratio: 0.958
//
Record sequence: TATTACACTG
System under test: ATP;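 also: ATP exposure 15 min at 22 °C before imaging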
switch fluorescence ratio: 1.03
//
Record sequence: ATTAGGGCCA
System under test: ATP;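 also: ATP exposure 15 min at 22 °C before imaging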
switch fluorescence ratio: 1.01
//
Record sequence: AGCTAGCAG
System under test: ATP;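 also: ATP exposure 15 min at 22 °C before imaging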
switch fluorescence ratio: 1.04
//
Record sequence: ATGTTTGGGC
System under test: ATP;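 also: ATP exposure 15 min at 22 °C before imaging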
switch fluorescence ratio: 0.96
//
Record sequence: TCTTGGGCAT
System under test: ATP;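 also: ATP exposure 15 min at 22 °C before imaging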
switch fluorescence ratio: 1.01
//
Record sequence: GTTTGAAAGT
System under test: ATP;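 also: ATP exposure 15 min at 22 °C before imaging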
switch fluorescence ratio: 0.957
//
Record sequence: CTGGTTAGGG
System under test: ATP;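 also: ATP exposure 15 min at 22 °C before imaging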
switch fluorescence ratio: 0.98
//
Record sequence: AAGTCCAAGA
System under test: ATP;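 also: ATP exposure 15 min at 22 °C before imaging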
switch fluorescence ratio: 1.01
//
Record sequence: TATGGGCACG
System under test: ATP;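 also: ATP exposure 15 min at 22 °C before imaging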
switch fluorescence ratio: 0.99
//
Record sequence: TATCTAGGGC
System under test: ATP;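 also: ATP exposure 15 min at 22 °C before imaging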
switch fluorescence ratio: 1.02
//
Record sequence: ACAGTGCTGC
System under test: ATP;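 also: ATP exposure 15 min at 22 °C before imaging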
switch fluorescence ratio: 0.978
//
Record sequence: GCTTGCCTAG
System under test: ATP;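 also: ATP exposure 15 min at 22 °C before imaging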
switch fluorescence ratio: 0.962
